system: ATP; test: switch fluorescence ratio, 500 uM ATP over buffer (Cy3 cluster intensity, sum of 5 cycles each) (fold (ratio)); higher = stronger signal-on switching upon ATP binding; sequences stand for … in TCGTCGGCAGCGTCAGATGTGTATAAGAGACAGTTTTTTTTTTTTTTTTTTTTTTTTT…TC; settings: aptamer strand: ATP DNA aptamer (quencher-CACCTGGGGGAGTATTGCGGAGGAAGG + anchor), 100 nM annealed; ATP concentration: 500 uM;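 further: ATP exposure 15 min at 22 °C before imaging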
Metric name: switch fluorescence ratio

Use these answered entries as a reference point.
Measured switch fluorescence ratio of CTGGGGGTAG : 1.01

Just so you know, measured switch fluorescence ratio for GTAATCGGCA came out at 1.02

Memo: ATATAGTGTA , reported switch fluorescence ratio: 0.99

Entry GTGACCGGGA , switch fluorescence ratio reported as 1

sequence TAATTTGCAG , switch fluorescence ratio observed: 0.981

The recorded switch fluorescence ratio for entry TTGAAACAGA equals 0.985

Next:
Kindly note the recorded switch fluorescence ratio for GAGTTTGAAA , which is 0.993

AAAGAGTTTT yielded switch fluorescence ratio of 1.02

// switch fluorescence ratio lookup, sequence = CTTGGCCGCG , result: 0.987

Numbers sourced from the supplement of paper PMC10126150.
